Provide the reported protein stability index of each item.
B1: CDC14A (parent)
chain: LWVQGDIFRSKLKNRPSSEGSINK

Variants of: B1
Assay: protein stability index of a GFP-peptide fusion (GPS, HEK-293T) (PSI 1-6); higher = more stable;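 further: lentivirally expressed fusions sorted by FACS into six bins by GFP to DsRed ratio, PSI derived from sequencing read proportions per bin multiplied by bin number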
Conditions: c terminus: a fixed tail appended
Lab note: record the figure alone, no unit after it.

## Input Determine from records and report protein stability index for LWVQGDIFRSKLKNRPSSEGSIPK [N23P]
## Output 3.06

## Input Quickly give me recorded protein stability index for LWVQGDIFRSKLKLRPSSEGSINK [N14L]
## Output 2.47

## Input Let me know recorded protein stability index for LMVQGDIFRSKLKNRPSSEGSINK [W2M] , thanks.
## Output 3.48

## Input Tell me measured protein stability index for LWVQFDIFRSKLKNRPSSEGSINK [G5F] please.
## Output 2.59

## Input Give protein stability index for MWVQGDIFRSKLKNRPSSEGSINK [L1M]
## Output 2.79

## Input Identify measured protein stability index associated with LWVQGDIFRGKLKNRPSSEGSINK [S10G]
## Output 3.17

## Input Consider the variant LWVQGDIFRSKLKNRPSSCGSINK [E19C] . State its measured protein stability index.
## Output 2.44

## Input Give protein stability index for LFVQGDIFRSKLKNRPSSEGSINK [W2F]
## Output 3.07

## Input Identify the reported protein stability index for the following entry. LWVQGDIFRWKLKNRPSSEGSINK [S10W]
## Output 1.54

## Input Report protein stability index, nothing else, for this variant: LQVQGDIFRSKLKNRPSSEGSINK [W2Q]
## Output 4.28

## Input # return recorded protein stability index for entry LWVQGDIFRSILKNRPSSEGSINK [K11I]
## Output 1.66

## Input Write down protein stability index measured for item LWVQGDIFRSKLKNDPSSEGSINK [R15D]
## Output 2.61

## Input Identify protein stability index associated with the variant LWVQGDIFRSKLKNRPSMEGSINK [S18M]
## Output 1.8

## Input Retrieve protein stability index measured for LWVLGDIFRSKLKNRPSSEGSINK [Q4L] and print it.
## Output 2.62

## Input Look up protein stability index of LWVQGDIFRSKSKNRPSSEGSINK [L12S] and report it.
## Output 2.89

## Input Query protein stability index for LWVQGDIFPSKLKNRPSSEGSINK [R9P]
## Output 3.18

## Input Note down protein stability index recorded for LWVQGDIFRSKLKNRPPSEGSINK [S17P]
## Output 2.41

## Input Indicate its recorded protein stability index; the variant in question is LWVQGDIFRSKLKNRPSSEGSINR [K24R]
## Output 2.52

## Input Name the recorded protein stability index of the variant listed here: LWVQGDIFRSKLKNRPMSEGSINK [S17M]
## Output 1.83

## Input Note protein stability index for the variant shown: LWVQGDIFRSKLKNRPSSEGSINE [K24E]
## Output 2.73

## Input Recall and state the measured protein stability index for LWVQGDIRRSKLKNRPSSEGSINK [F8R] .
## Output 2.92

## Input Supply reported protein stability index belonging to this variant: LWVQGDIFRSKLKNRPSDEGSINK [S18D]
## Output 3.11
